Values were extracted from paper PMC10538245.

# System: HS 578 T
# PROTOCOL_TEXT: NCI 60-cell line one dose antiproliferative assay
# Assay type: cell-based
# TEST_CONTEXT: Homo sapiens, Breast Cancer, 10 µM one dose, read-out: Percent inhibition (cell growth inhibition %)
Measured inhibition at 10 µM values are reported for all entries that follow.
MEASURED_PARAMETER: inhibition at 10 µM (%)

1. O=C(COc1ncnc2sc3c(c12)CCCC3)NN=Cc1ccc(Cl)cc1 :: 7.62
2. CN(C)c1ccc(C=NNC(=O)COc2ncnc3sc4c(c23)CCCC4)cc1 :: 5.71
3. O=C(COc1ncnc2sc3c(c12)CCCC3)NN=Cc1ccc(Br)cc1 :: 7.31
4. COc1ccc(C=NNC(=O)COc2ncnc3sc4c(c23)CCCC4)c(OC)c1OC :: 7.21

---

# System: LOX IMVI
# PROTOCOL_TEXT: NCI 60-cell line one dose antiproliferative assay
# Type: cell-based
# TEST_CONTEXT: Homo sapiens, Melanoma, 10 µM one dose, read-out: Percent inhibition (cell growth inhibition %)
Rule: satisfied for inhibition at 10 µM not less than 4%, not satisfied for anything less.

1. O=C(COc1ncnc2sc3c(c12)CCCC3)NNC(=S)Nc1ccccc1 [6a] :: not satisfied
2. CN(C)c1ccc(C=NNC(=O)COc2ncnc3sc4c(c23)CCCC4)cc1 [5d] :: not satisfied
3. O=C(COc1ncnc2sc3c(c12)CCCC3)NN=Cc1ccc(Br)cc1 [5c] :: not satisfied
4. COc1ccc(C=NNC(=O)COc2ncnc3sc4c(c23)CCCC4)c(OC)c1OC [5a] :: satisfied
5. O=C(COc1ncnc2sc3c(c12)CCCC3)NN=Cc1ccc(Cl)cc1 [5b] :: satisfied
